# assayed system: butyrylcholinesterase (BuChE) (Homo sapiens, UniProt P06276)
# Sequence (P06276 29-602): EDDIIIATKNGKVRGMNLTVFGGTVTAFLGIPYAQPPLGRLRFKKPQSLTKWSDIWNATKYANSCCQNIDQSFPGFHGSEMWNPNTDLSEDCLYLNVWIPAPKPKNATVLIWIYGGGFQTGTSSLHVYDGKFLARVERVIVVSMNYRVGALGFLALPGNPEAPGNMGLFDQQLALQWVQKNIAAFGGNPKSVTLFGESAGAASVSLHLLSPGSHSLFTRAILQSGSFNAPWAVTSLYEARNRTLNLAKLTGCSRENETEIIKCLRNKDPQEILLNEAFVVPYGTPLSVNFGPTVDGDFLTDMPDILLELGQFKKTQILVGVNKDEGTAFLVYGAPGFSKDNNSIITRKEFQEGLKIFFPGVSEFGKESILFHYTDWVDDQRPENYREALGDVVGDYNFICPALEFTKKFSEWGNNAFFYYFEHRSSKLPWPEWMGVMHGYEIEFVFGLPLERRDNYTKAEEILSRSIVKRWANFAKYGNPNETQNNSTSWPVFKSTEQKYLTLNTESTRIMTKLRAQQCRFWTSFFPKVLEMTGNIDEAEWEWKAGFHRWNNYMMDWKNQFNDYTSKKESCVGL
# measurement description: biochemical
# reported conditions: read-out: % inhibition BuChE
Label class 1 for high-side inhibition at 100 µM (at or above 80%) and class 0 for low-side inhibition at 100 µM (below it).

# count of solved cases: 5
- compound: "C#CCSc1ccc(-c2ccccn2)nn1 [Compound 1]"
  assayed system: "butyrylcholinesterase (BuChE) (Homo sapiens, UniProt P06276)"
  label value: "class 1"
- compound: "CC(=O)OC1COC(n2cc(CSc3ccc(-c4ccccn4)nn3)nn2)C(OC(C)=O)C1OC(C)=O (stereo not shown) [Compound 5]"
  assayed system: "butyrylcholinesterase (BuChE) (Homo sapiens, UniProt P06276)"
  label value: "class 1"
- compound: "CC(=O)OC[C@H]1O[C@@H](n2cc(CSc3ccc(-c4ccccn4)nn3)nn2)[C@H](OC(C)=O)[C@@H]1OC(C)=O [Compound 6]"
  assayed system: "butyrylcholinesterase (BuChE) (Homo sapiens, UniProt P06276)"
  label value: "class 0"
- compound: "CC(=O)OC[C@H]1O[C@@H](n2cc(CSc3ccc(-c4ccccn4)nn3)nn2)[C@H](OC(C)=O)[C@@H](OC(C)=O)[C@H]1OC(C)=O [Compound 4]"
  assayed system: "butyrylcholinesterase (BuChE) (Homo sapiens, UniProt P06276)"
  label value: "class 0"
- compound: "CC(=O)OCC1OC(n2cc(CSc3ccc(-c4ccccn4)nn3)nn2)C(OC(C)=O)C(OC(C)=O)C1OC(C)=O (stereo not shown) [Compound 3]"
  assayed system: "butyrylcholinesterase (BuChE) (Homo sapiens, UniProt P06276)"
  label value: "class 1"

-- ask // inclusive: inhibition at 100 µM at least 80%? input: NCCn1cc(CSc2ccc(-c3ccccn3)nn2)nn1 [Compound 11]
-- reply class 0
